# measurement notes: inhibitors of intracellular T. cruzi replication, confirmation, NIH3T3 host cells, beta-gal parasites, cherry-pick, set 2 (AID 651740)
# protocol conditions: T. cruzi beta-gal in NIH3T3, GalScreen luminescence, 90 h; at 2.09 µM; stronger effect = higher value
The campaign covered roughly 5,600 compounds. About 1,200 (21%) were called active. Another 3% or so got no clear call; they are omitted. Not all results are given here.
We use 70% as the dividing line for inhibition: on or above the line is Met, below is Not met.

{"smiles text": "OC[C@@H]1[C@H](c2ccc(C#CC3CC3)cc2)[C@@H]2CN(CCC(F)(F)F)CCCCN12", "group label": "Met"}
{"smiles text": "O=C(NCC1CCCCC1)[C@H]1[C@H](CO)[C@H]2Cn3c(cccc3=O)[C@H]2N1C(=O)CC1CC1", "group label": "Not met"}
{"smiles text": "C[C@H](CO)N1C[C@H](C)[C@H](CN(C)C(=O)Nc2ccc(C(F)(F)F)cc2)OCCCC[C@H](C)Oc2ccc(NC(=O)C3CCCCC3)cc2C1=O", "group label": "Met"}
{"smiles text": "O=C(C1CC1)N1CCCCN2[C@H](CO)[C@H](c3ccc(-c4cccc(F)c4)cc3)[C@H]2C1", "group label": "Not met"}
{"smiles text": "C[C@H](CO)N1C[C@H](C)[C@H](CN(C)C(=O)Nc2ccc3c(c2)OCO3)Oc2ncc(C#Cc3cccc(F)c3)cc2C1=O", "group label": "Not met"}
{"smiles text": "O=C(C[C@H]1CC[C@@H]2[C@H](COC[C@H](O)CN2Cc2ccc(Oc3ccccc3)cc2)O1)N1CCN(c2ccccc2)CC1", "group label": "Not met"}

---

# measurement notes: inhibitors of intracellular T. cruzi replication, confirmation, NIH3T3 host cells, beta-gal parasites, cherry-pick, set 2 (AID 651740)
# protocol conditions: T. cruzi beta-gal in NIH3T3, GalScreen luminescence, 90 h; at 2.09 µM
Among all 5,600 compounds or so, about 1,200 (21%) were called active. Roughly 3% stayed inconclusive and do not appear here.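 Rule for the calls: active = mean inhibition above about 95%, with at least 55% of replicates also reaching it (limit read from the data); inconclusive = meets just one of the two conditions; inactive = meets neither condition.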 These entries were drawn from the full list.
Outcomes: active, inactive

{"smiles text": "C[C@H](CO)N1C[C@H](C)[C@@H](CN(C)Cc2ccc(C(F)(F)F)cc2)OCCCC[C@H](C)Oc2ccc(NC(=O)C3CCCCC3)cc2C1=O", "group label": "active"}
{"smiles text": "COc1ccc(S(=O)(=O)N2CCCCN3[C@H](CO)[C@@H](c4ccc(C#CC(C)C)cc4)[C@H]3C2)cc1", "group label": "inactive"}
{"smiles text": "CCC(=O)N1CCCCN2[C@H](C1)[C@@H](c1ccc(/C=C/c3ccccc3)cc1)[C@@H]2CO", "group label": "inactive"}
{"smiles text": "O=S(=O)(Cc1ccccc1)N1CCCCN2[C@@H](CO)[C@H](c3ccc(-c4ccccc4)cc3)[C@@H]2C1", "group label": "inactive"}
{"smiles text": "COc1ccc(NC(=O)N(C)C[C@@H]2Oc3c(NC(=O)NC4CCCCC4)cccc3C(=O)N([C@@H](C)CO)C[C@@H]2C)cc1", "group label": "inactive"}
{"smiles text": "COc1cccc(S(=O)(=O)N2CCCCN3[C@H](CO)[C@H](c4ccc(-c5ccncc5)cc4)[C@H]3C2)c1", "group label": "active"}
{"smiles text": "O=S(=O)(Cc1ccccc1)N1CCCCN2[C@@H](CO)[C@H](c3ccc(-c4cccnc4)cc3)[C@@H]2C1", "group label": "inactive"}
{"smiles text": "Cc1ccc(S(=O)(=O)N2C[C@@H](O)COC[C@@H]3O[C@H](CC(=O)NCc4ccc(Cl)c(Cl)c4)CC[C@H]32)cc1", "group label": "inactive"}
